Cited source for all entries: PubChem BioAssay AID1159580

normalized growth values for the compounds below.
- method_summary: chemical genetic growth profiling, strain panel (AID 1159580);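 note: tested at 20 µM; growth read once vehicle control cultures reached saturation at 30 °C; 1 = growth at the plate median or of vehicle wells; lower values mean less growth of the strain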
- condition: S. cerevisiae deletion strains, growth OD, locus YNL307C, strain MCK1, hits give low values
Screen size: about 5,500 compounds; about 2,000 (36%) were called active. Another 18% or so got no clear call; they are omitted. Some of the results follow.
Answer using only a numeral; do not append any unit.

CC(C(=O)O)c1ccc(-c2ccccc2)c(F)c1 (stereo not drawn) | 0.947
CC[C@H]1OC(=O)[C@H](C)[C@@H](O[C@H]2C[C@@](C)(OC)[C@@H](O)[C@H](C)O2)[C@H](C)[C@@H](O[C@@H]2O[C@H](C)C[C@H](N(C)C)[C@H]2O)[C@](C)(O)C[C@@H](C)CN(C)[C@H](C)[C@@H](O)[C@]1(C)O | 0.945
CC(C(=O)O)c1cccc(Oc2ccccc2)c1 (stereo not drawn) | 0.979
COc1ccc2c(C)cc(=O)oc2c1 | 1.04
COc1cc(NC(C)CCCN)c2ncccc2c1 (stereo not drawn) | 1
COc1ccc2c(c1)OCc1c-2oc2cc(OC)ccc12 | 0.858
CC(C(=O)O)c1cccc(C(=O)c2ccccc2)c1 (stereo not drawn) | 0.978

--- query ---
Problem: # normalized growth lookup, item `CCOC(=O)CCC(=O)O[C@H]1[C@H](O[C@@H]2[C@@H](C)[C@H](O[C@H]3C[C@@](C)(OC)[C@@H](O)[C@H](C)O3)[C@@H](C)C(=O)O[C@H](CC)[C@@](C)(O)[C@H](O)[C@@H](C)C(=O)[C@H](C)C[C@@]2(C)O)O[C@H](C)C[C@@H]1N(C)C`
Solution: 0.989

* * *

normalized growth values for the molecules below.
- method_summary: chemical genetic growth profiling, strain panel (AID 1159580);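 note: tested at 20 µM; growth read once vehicle control cultures reached saturation at 30 °C; 1 = growth at the plate median or of vehicle wells; lower values mean less growth of the strain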
- condition: S. cerevisiae deletion strains, growth OD, locus YDR150W, strain NUM1, hits give low values
Hit rate of the full screen: of about 5,500 compounds, about 2,000 (36%) were called active. Inconclusive results (about 18%) are left out. The list shows a part of the results.
Answer using only a numeral; do not append any unit.

Problem: # normalized growth lookup, item `Cc1cccc(Cn2c(C)c(C)c(S(=O)(=O)c3ccccc3)c2N)c1C`
Solution: 1.01

Problem: # normalized growth lookup, item `CC(C)(OC(=O)c1ccccc1)[C@@H]1Cc2cc3ccc(=O)oc3cc2O1`
Solution: 0.989

Problem: # normalized growth lookup, item `C=C(C)[C@@H]1[C@H]2OC(=O)[C@@H]1[C@]1(O)C[C@H]3O[C@]34C(=O)O[C@H]2[C@]14C`
Solution: 0.971

Problem: # normalized growth lookup, item `CC(C)C[C@H](NC(=O)[C@@H](O)[C@H](N)Cc1ccccc1)C(=O)O`
Solution: 1.03

Problem: # normalized growth lookup, item O=C(O)C1C2CCC(O2)C1C(=O)O (stereo unspecified)
Solution: 1

Problem: # normalized growth lookup, item `O=C(O)c1c2ccccc2cc2ccccc12`
Solution: 1.02

Problem: # normalized growth lookup, item CC(C)CC(NC(=O)C(Cc1ccccc1)NC(=O)CNC(=O)CNC(=O)C(N)Cc1ccc(O)cc1)C(=O)O (stereo unspecified)
Solution: 0.989

Problem: # normalized growth lookup, item `CCCS(=O)(=O)c1c(C)c(C)n(Cc2ccccc2)c1N`
Solution: 1

Problem: # normalized growth lookup, item `CCOC(=O)C(=CNc1cccc(C#N)c1)C(=O)OCC`
Solution: 0.992

Problem: # normalized growth lookup, item `CCOC(=O)C(=CNc1ccccc1N1CCOCC1)C(=O)OCC`
Solution: 0.939

Problem: # normalized growth lookup, item `CCOC(=O)C(=CNNC(=O)c1ccccc1-n1cccc1)C(=O)OCC`
Solution: 1.01
